Cited source for all entries: patent US8633232B2

For each record, write down the corresponding pEC50.
Test system: hURAT1 Transporter (Homo sapiens)
Construct: Full-length human URAT1 gene (SLC22A12) was subcloned from plasmid pCMV6-XL5
Sequence (Q96S37 1-553): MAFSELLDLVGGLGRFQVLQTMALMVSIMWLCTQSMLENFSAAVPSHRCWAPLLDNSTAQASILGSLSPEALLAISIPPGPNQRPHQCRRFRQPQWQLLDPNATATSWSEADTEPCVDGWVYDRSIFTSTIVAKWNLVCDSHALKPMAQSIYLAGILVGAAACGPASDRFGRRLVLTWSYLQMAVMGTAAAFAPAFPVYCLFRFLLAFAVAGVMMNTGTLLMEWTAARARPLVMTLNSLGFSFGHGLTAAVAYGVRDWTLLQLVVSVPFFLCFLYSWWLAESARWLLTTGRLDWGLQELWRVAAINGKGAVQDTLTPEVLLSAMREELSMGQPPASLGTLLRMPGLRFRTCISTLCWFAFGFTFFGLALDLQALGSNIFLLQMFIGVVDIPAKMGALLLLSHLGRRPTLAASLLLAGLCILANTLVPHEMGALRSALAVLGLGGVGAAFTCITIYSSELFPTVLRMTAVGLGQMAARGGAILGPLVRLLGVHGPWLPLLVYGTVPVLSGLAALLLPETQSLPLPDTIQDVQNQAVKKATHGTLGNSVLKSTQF
Assay notes: Uric Acid Uptake Assay
Particulars: HEK293/urat1 cells; C14 Uric Acid 40 μM; 10 minutes at room temperature
pEC50: −log10 of the molar value.

Below are worked cases with known answers.
[
  {
    "Compound": "CCc1ccc(-n2c(CF)nnc2SCC(=O)O)c2ccccc12",
    "Test system": "hURAT1 Transporter (Homo sapiens)",
    "pEC50": "4.52 to 6.00"
  },
  {
    "Compound": "O=C(O)CCCSc1nnc(Br)n1-c1ccc(C2CC2)c2ccccc12",
    "Test system": "hURAT1 Transporter (Homo sapiens)",
    "pEC50": "6.00 to 9.00"
  },
  {
    "Compound": "Cc1cccc(C)c1-n1c(C)nnc1SCC(=O)O",
    "Test system": "hURAT1 Transporter (Homo sapiens)",
    "pEC50": "< 4.52"
  },
  {
    "Compound": "CCOC(=O)CSc1nncn1-c1ccc(C)c2c1CCCN2",
    "Test system": "hURAT1 Transporter (Homo sapiens)",
    "pEC50": "< 4.52"
  },
  {
    "Compound": "Cc1nnc(SCC(=O)O)n1-c1cccc2cccnc12",
    "Test system": "hURAT1 Transporter (Homo sapiens)",
    "pEC50": "< 4.52"
  }
]

Batch request: pEC50 for each of the following compounds.
1. CCCSc1nnc(N)n1-c1ccc(C2CC2)c2ccccc12
2. Cc1nnc(SCC(=O)O)n1Cc1ccccc1
3. CCOC(=O)CSc1nncn1-c1ccc(C)c2ccc(C)cc12
4. CCOC(=O)CSc1nnc(C(F)(F)F)n1-c1c(C)cc(C)c2c1CCCC2
5. CCOC(=O)CSc1nnc(-c2ccccc2)n1-c1ccc(C2CC2)c2ccccc12
6. Cc1ccc2c(C)ccc(-n3cnnc3SCC(=O)O)c2c1
7. COc1ccccc1-n1c(C)nnc1SCC(=O)O
8. CCOC(=O)CSc1nnc(CF)n1-c1ccc(C)c2c1CCCC2

["< 4.52", "< 4.52", "4.52 to 6.00", "< 4.52", "4.52 to 6.00", "< 4.52", "< 4.52", "4.52 to 6.00"]

---

Test system: hURAT1 Transporter (Homo sapiens, UniProt Q96S37)
Construct: Full-length human URAT1 gene (SLC22A12) was subcloned from plasmid pCMV6-XL5
Assay notes: Uric Acid Uptake Assay
Particulars: HEK293/urat1 cells; C14 Uric Acid 40 μM; 10 minutes at room temperature
What EC50 was measured for each of the following?

In the examples that follow, each entry is paired with its recorded EC50.
[
  {
    "Compound": "COc1ccc(Cl)c(-n2c(Br)nnc2SCC(=O)O)c1",
    "Test system": "hURAT1 Transporter (Homo sapiens, UniProt Q96S37)",
    "EC50": "> 30 µM"
  },
  {
    "Compound": "CCOC(=O)CCSc1nnc(Br)n1-c1ccc(C2CC2)c2ccccc12",
    "Test system": "hURAT1 Transporter (Homo sapiens, UniProt Q96S37)",
    "EC50": "1 to 30 µM"
  },
  {
    "Compound": "Cc1ccc(-n2c(SCC(=O)O)nnc2C(F)F)c2ccccc12",
    "Test system": "hURAT1 Transporter (Homo sapiens, UniProt Q96S37)",
    "EC50": "1 to 30 µM"
  },
  {
    "Compound": "O=C(O)CSc1nnc(Br)n1-c1cc(C(F)(F)F)ccc1Cl",
    "Test system": "hURAT1 Transporter (Homo sapiens, UniProt Q96S37)",
    "EC50": "> 30 µM"
  },
  {
    "Compound": "CCc1ccc(-n2c(Br)nnc2SCC(=O)OC)c2ccccc12",
    "Test system": "hURAT1 Transporter (Homo sapiens, UniProt Q96S37)",
    "EC50": "0.001 to 1 µM"
  }
]

Your task in this section: give EC50 for each listed record.
1. CCOC(=O)CSc1nnc(Br)n1-c1ccc(C2CC2)c2ccccc12
2. Nc1nnc(SCCCC(=O)O)n1-c1ccc(C2CC2)c2ccccc12
3. Cc1cc(C)c(-n2cnnc2SCC(=O)O)c2c1CCCC2
4. CCOC(=O)CSc1nnc(C(F)F)n1-c1ccc(C)c2c1CCCN2
5. CCOC(=O)C(C)(C)Sc1nnc(Br)n1-c1ccc(CC)c2ccccc12
6. CCOC(=O)C(C)(C)Sc1nnc(Br)n1-c1ccc(C2CC2)c2ccccc12
7. COc1ccc(Cl)c(-n2c(SCC(=O)O)nnc2C(F)F)c1
8. CCOC(=O)C(C)(C)Sc1nnc(N)n1-c1ccc(C2CC2)c2ccccc12

["0.001 to 1 µM", "1 to 30 µM", "> 30 µM", "> 30 µM", "0.001 to 1 µM", "0.001 to 1 µM", "> 30 µM", "> 30 µM"]

For every listed record, write down its EC50.
1. CC(C)(Sc1nnc(N)n1-c1ccc(C2CC2)c2ccccc12)C(=O)O [Example 5]
2. Cc1nnc(SCC(=O)O)n1-c1ccccc1Cl
3. CCOC(=O)CCSc1nnc(N)n1-c1ccc(C2CC2)c2ccccc12

1. > 30 µM
2. > 30 µM
3. 1 to 30 µM

---

Test system: hURAT1 Transporter (Homo sapiens, UniProt Q96S37)
Construct: Full-length human URAT1 gene (SLC22A12) was subcloned from plasmid pCMV6-XL5
Sequence (Q96S37 1-553): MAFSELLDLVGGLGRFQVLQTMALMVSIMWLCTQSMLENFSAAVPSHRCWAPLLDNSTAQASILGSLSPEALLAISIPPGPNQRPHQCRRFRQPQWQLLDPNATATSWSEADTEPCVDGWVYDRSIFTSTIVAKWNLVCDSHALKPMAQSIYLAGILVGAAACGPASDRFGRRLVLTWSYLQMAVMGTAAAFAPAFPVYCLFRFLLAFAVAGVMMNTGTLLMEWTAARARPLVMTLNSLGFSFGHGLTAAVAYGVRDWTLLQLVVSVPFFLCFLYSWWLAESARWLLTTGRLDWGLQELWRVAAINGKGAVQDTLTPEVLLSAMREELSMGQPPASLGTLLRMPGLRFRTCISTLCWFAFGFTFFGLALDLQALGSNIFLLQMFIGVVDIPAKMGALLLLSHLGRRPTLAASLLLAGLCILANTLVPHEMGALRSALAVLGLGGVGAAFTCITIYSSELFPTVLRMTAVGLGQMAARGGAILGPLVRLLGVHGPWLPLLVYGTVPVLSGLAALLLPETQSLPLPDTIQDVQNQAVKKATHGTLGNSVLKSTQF
Assay notes: Uric Acid Uptake Assay
Particulars: HEK293/urat1 cells; C14 Uric Acid 40 μM; 10 minutes at room temperature
Quantity name: EC50

# example entries with known answers
[
  {
    "Molecule": "Cc1nnc(SCC(=O)O)n1-c1ccc(C(=O)O)cc1",
    "Test system": "hURAT1 Transporter (Homo sapiens, UniProt Q96S37)",
    "EC50": "> 30 µM"
  },
  {
    "Molecule": "CCOC(=O)CSc1nnc(C(F)(F)F)n1-c1ccc(OC)c2c1CCCC2",
    "Test system": "hURAT1 Transporter (Homo sapiens, UniProt Q96S37)",
    "EC50": "> 30 µM"
  },
  {
    "Molecule": "Cc1nnc(SCC(=O)O)n1-c1ccccc1F",
    "Test system": "hURAT1 Transporter (Homo sapiens, UniProt Q96S37)",
    "EC50": "> 30 µM"
  },
  {
    "Molecule": "CCOC(=O)CSc1nnc(N)n1-c1ccc(C2CC2)c2ccccc12",
    "Test system": "hURAT1 Transporter (Homo sapiens, UniProt Q96S37)",
    "EC50": "> 30 µM"
  },
  {
    "Molecule": "COc1ccc2c(Br)ccc(-n3c(Br)nnc3SCC(=O)O)c2c1",
    "Test system": "hURAT1 Transporter (Homo sapiens, UniProt Q96S37)",
    "EC50": "1 to 30 µM"
  },
  {
    "Molecule": "Cc1nnc(SCC(=O)O)n1-c1cccc(Cl)c1",
    "Test system": "hURAT1 Transporter (Homo sapiens, UniProt Q96S37)",
    "EC50": "> 30 µM"
  },
  {
    "Molecule": "CCOC(=O)CSc1nncn1-c1c(C)cc(C)c2c1CCCC2",
    "Test system": "hURAT1 Transporter (Homo sapiens, UniProt Q96S37)",
    "EC50": "1 to 30 µM"
  },
  {
    "Molecule": "O=C(O)CSc1nnc(C(F)F)n1-c1ccc(C2CC2)c2ccccc12",
    "Test system": "hURAT1 Transporter (Homo sapiens, UniProt Q96S37)",
    "EC50": "1 to 30 µM"
  }
]

Provide reported EC50 for each item, in the same order as listed.
1. CC(C)(C)c1ccc(-n2c(SCC(=O)O)nnc2C(F)F)c(Cl)c1
2. CCOC(=O)C(C)Sc1nnc(Br)n1-c1ccc(C2CC2)c2ccccc12 (centres unmarked)
3. Cc1nnc(SCC(=O)O)n1-c1ccc(C(F)(F)F)cc1

> 30 µM
1 to 30 µM
> 30 µM
